Molecular target: CDK4 (Homo sapiens, UniProt P11802+Q16531)
Assay: CDK4 percentage degradation in Calu-1 cells (Table 6)
Format: cell-based
Design: Cells that express cyclin D1-3 and CDK4/6 proteins were treated with heterobifunctional compounds; endogenous in cells; host or cells: Calu-1
Details: 40 nM, 16 hours
Sequence (P11802 2-303 limits assumed): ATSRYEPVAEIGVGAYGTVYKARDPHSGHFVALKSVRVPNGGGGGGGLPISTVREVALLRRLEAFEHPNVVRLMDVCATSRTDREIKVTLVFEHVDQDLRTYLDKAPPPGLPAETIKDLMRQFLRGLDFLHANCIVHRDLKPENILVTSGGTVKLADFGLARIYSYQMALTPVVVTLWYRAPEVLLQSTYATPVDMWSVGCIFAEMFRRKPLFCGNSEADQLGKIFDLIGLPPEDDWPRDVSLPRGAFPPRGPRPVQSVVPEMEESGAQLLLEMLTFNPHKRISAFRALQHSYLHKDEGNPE
Sequence (P24385 whole entry partner): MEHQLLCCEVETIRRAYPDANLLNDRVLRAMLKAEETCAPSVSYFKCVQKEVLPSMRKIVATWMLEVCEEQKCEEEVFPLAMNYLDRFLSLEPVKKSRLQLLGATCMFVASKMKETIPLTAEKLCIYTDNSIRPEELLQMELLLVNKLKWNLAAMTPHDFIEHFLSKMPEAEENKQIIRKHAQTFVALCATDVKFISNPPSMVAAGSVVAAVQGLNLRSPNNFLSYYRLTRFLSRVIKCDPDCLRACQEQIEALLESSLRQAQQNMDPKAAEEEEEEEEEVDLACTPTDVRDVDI
Sequence (Q16531 2-1140 limits assumed): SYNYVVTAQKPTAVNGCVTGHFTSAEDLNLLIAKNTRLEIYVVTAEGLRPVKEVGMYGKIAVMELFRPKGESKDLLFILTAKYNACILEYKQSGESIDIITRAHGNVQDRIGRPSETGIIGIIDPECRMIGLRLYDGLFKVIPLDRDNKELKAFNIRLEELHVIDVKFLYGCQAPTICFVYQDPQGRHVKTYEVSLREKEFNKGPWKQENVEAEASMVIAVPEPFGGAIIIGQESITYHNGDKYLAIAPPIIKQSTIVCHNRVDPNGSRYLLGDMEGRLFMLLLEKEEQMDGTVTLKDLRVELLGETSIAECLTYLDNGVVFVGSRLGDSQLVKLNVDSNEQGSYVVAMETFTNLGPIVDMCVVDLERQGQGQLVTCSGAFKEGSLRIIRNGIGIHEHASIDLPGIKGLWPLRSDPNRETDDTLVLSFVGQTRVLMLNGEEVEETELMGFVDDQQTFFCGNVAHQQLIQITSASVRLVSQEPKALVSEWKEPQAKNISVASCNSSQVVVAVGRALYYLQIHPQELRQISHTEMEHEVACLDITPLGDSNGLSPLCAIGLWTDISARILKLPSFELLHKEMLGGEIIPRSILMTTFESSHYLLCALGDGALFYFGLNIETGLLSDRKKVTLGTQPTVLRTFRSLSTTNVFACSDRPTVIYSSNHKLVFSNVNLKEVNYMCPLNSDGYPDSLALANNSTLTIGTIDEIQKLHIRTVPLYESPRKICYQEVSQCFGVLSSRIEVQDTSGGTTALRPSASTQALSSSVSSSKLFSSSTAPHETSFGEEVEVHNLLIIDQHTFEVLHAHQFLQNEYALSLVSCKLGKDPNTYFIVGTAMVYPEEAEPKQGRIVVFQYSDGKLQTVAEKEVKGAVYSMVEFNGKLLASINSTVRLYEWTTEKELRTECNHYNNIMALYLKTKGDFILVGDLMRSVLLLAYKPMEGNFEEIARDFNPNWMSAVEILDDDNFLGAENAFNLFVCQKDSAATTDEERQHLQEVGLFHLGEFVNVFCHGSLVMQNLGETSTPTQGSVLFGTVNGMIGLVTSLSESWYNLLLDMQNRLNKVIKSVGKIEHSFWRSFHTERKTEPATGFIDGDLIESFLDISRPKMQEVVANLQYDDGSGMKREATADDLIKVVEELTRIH
Measurement Name: inhibition at 0.04 µM

Examples with answers:
CC(=O)c1c(C)c2cnc(Nc3ccc(N4CCN(CC(=O)NCC5CC(Nc6nc(NC(C)C)ccc6C(=O)Nc6cc(C)n(C)n6)C5)CC4)cn3)nc2n(C2CCCC2)c1=O (stereo not shown) [CPD-205]    50 to 80%
CNc1ccc(C(=O)Nc2ccc(N(C)C)nn2)c(NC2CC3(C2)CN(C(=O)C2CC24CCN(c2ccc(Nc5ncc6c(C)c(C(C)=O)c(=O)n(C7CCCC7)c6n5)nc2)CC4)C3)n1 (stereo not shown) [CPD-324]    < 30%
CNc1ccc(C(=O)Nc2ccc(N(C)C)nn2)c(NC2CC(CCNC(=O)CN3CCN(c4ccc(Nc5ncc6c(C)c(C(C)=O)c(=O)n(C7CCCC7)c6n5)nc4)CC3)C2)n1 (stereo not shown) [CPD-34]    > 80%

Next molecule, inhibition at 0.04 µM to be filled in.
response.value for CC(=O)c1c(C)c2cnc(Nc3ccc(N4CCN(CC(=O)NCCCCCNc5nc(C6CC6)ccc5C(=O)Nc5ccc(C)c(C6CC6)n5)CC4)cn3)nc2n(C2CCCC2)c1=O [CPD-44] (field: inhibition at 0.04 µM) = < 30%

* * *

Target: CDK4 (Homo sapiens, UniProt P11802+Q16531)
Test: CDK4 percentage degradation in Calu-1 cells (Table 6)
Format: cell-based
Parameters: Cells that express cyclin D1-3 and CDK4/6 proteins were treated with heterobifunctional compounds; endogenous in cells; host or cells: Calu-1
Conditions: 40 nM, 16 hours
Measurement Name: inhibition at 0.04 µM

CNc1ccc(C(=O)Nc2ccc(C3CC3)nc2)c(NC2CC3(CC(NC(=O)CN4CCN(c5ccc(Nc6ncc7c(C)c(C(C)=O)c(=O)n(C8CCCC8)c7n6)nc5)CC4)C3)C2)n1 (centres unmarked) [CPD-74]    < 30%
CC(=O)c1c(C)c2cnc(Nc3ccc(N4CCN(CC(=O)NCCCCCNc5nc(C)ccc5C(=O)Nc5ccc(N(C)C)nn5)CC4)cn3)nc2n(C2CCCC2)c1=O [CPD-16]    50 to 80%
[2H]C([2H])([2H])Nc1ccc(C(=O)Nc2ccc(N(C)C)nn2)c(NC2CCN(C(=O)CN3CCN(c4ccc(Nc5ncc6c(C)c(C(C)=O)c(=O)n(C7CCCC7)c6n5)nc4)CC3)CC2)n1 [CPD-250]    30 to 50%

Here are 2 compounds. What values of inhibition at 0.04 µM were reported for them?
1. CNc1ccc(C(=O)Nc2cccc(C(C)C)n2)c(NC2CC3(CC(NC(=O)CN4CCN(c5ccc(Nc6ncc7c(C)c(C(C)=O)c(=O)n(C8CCCC8)c7n6)nc5)CC4)C3)C2)n1 (centres unmarked) [CPD-76]
2. CNc1ccc(C(=O)Nc2ccc(N(C)C)nn2)c(NCCC2CC(NC(=O)CN3CCN(c4ccc(Nc5ncc6c(C)c(C(C)=O)c(=O)n(C7CCCC7)c6n5)nc4)CC3)C2)n1 (centres unmarked) [CPD-41]

## Output
< 30%
30 to 50%

* * *

Target: CDK4 (Homo sapiens, UniProt P11802+Q16531)
Assay: HiBiT detection of HiBiT-tagged CDK4 protein level in MCF7 cells, 16 hours (Table 8)
Format: cell-based
Design: expressed in transfected cells; host or cells: MCF7
Settings: 100 nM, MCF7 cells stably expressing HiBiT tagged target proteins, read-out: % CDK4 Relative Level (100 nM)
Sequence (P11802 whole entry): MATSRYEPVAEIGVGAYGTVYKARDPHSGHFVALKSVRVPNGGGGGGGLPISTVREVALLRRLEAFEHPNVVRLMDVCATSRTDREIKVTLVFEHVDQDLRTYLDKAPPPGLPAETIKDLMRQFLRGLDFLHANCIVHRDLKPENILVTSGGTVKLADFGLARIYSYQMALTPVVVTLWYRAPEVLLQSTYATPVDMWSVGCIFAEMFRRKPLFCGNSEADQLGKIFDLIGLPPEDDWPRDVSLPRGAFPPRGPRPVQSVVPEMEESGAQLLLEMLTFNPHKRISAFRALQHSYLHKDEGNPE
Sequence (P24385 whole entry partner): as the sequence (P24385 whole entry partner) above
Sequence (Q16531 2-1140 limits assumed): as the sequence (Q16531 2-1140 limits assumed) above
Consider the following compounds; for each one, report its activity at 0.1 µM.

A selection of reference data follows.
CNc1ccc(C(=O)Nc2ccc(N(C)C)nn2)c(NCCCC(=O)N2CCN(c3ccc(Nc4ncc(F)c(-c5cc(F)c6nc(C)n(C(C)C)c6c5)n4)nc3)CC2)n1    > 85%
CC(=O)c1c(C)c2cnc(Nc3ccc(N4CCN(C5CCN(C(=O)[C@H]6CC[C@H](Nc7nc(NC(C)C)ccc7C(=O)Nc7cc(C)n(C)n7)CC6)C5)CC4)cn3)nc2n(C2CCCC2)c1=O (some centres unmarked)    55 to 85%
CC(=O)c1c(C)c2cnc(Nc3ccc(CN4CCN(CC(=O)N5CCC6(CCC(Nc7nc(C8CC8)ccc7C(=O)Nc7ccc(N(C)C)nn7)C6)C5)CC4)cn3)nc2n(C2CCCC2)c1=O (centres unmarked)    55 to 85%
CNc1ccc(C(=O)Nc2ccc(N(C)C)nn2)c(NCCCCCCNC(=O)CN2CCN(c3ccc(Nc4ncc(F)c(-c5cc(F)c6nc(C)n(C(C)C)c6c5)n4)nc3)CC2)n1    > 85%

Now for another entry.
Data point: CNc1ccc(C(=O)Nc2ccc(N(C)C)nn2)c(NCCOCCOCCC(=O)N2CCN(c3ccc(Nc4ncc5cc6n(c5n4)C4(CCCCC4)CNC6=O)nc3)CC2)n1 ; activity at 0.1 µM = > 85%

* * *

Target: CDK4 (Homo sapiens, UniProt P11802+Q16531)
Assay: CDK4 percentage degradation in Calu-1 cells (Table 6)
Type: cell-based
Parameters: Cells that express cyclin D1-3 and CDK4/6 proteins were treated with heterobifunctional compounds; endogenous in cells; host or cells: Calu-1
Details: 200 nM, 16 hours
Give inhibition at 0.2 µM for every item shown.

// known answers, use as guide
CNc1ccc(C(=O)Nc2nc(C3CC3)ccc2C)c(NCCCCCNC(=O)CN2CCN(c3ccc(Nc4ncc5c(C)c(C(C)=O)c(=O)n(C6CCCC6)c5n4)nc3)CC2)n1 [CPD-61]    < 30%
CNc1ccc(C(=O)Nc2ccc(N(C)C)nn2)c(NC2CC3(CC(CCC(=O)N4CCN(c5ccc(Nc6ncc7c(C)c(C(C)=O)c(=O)n(C8CCCC8)c7n6)nc5)CC4)C3)C2)n1 (centres unmarked) [CPD-82]    30 to 50%
CNc1ccc(C(=O)NC2CCC(N(C)C)CC2)c(NCCCCCNC(=O)CN2CCN(c3ccc(Nc4ncc5c(C)c(C(C)=O)c(=O)n(C6CCCC6)c5n4)nc3)CC2)n1 (centres unmarked) [CPD-48]    < 30%
CNc1ccc(C(=O)Nc2ccc(N(C)C)nn2)c(NC2CCN(C(=O)CCN3CCN(c4ccc(Nc5ncc6c(C)c(C(C)=O)c(=O)n(C7CCCC7)c6n5)nc4)CC3)CC2)n1 [CPD-203]    50 to 80%
CC(=O)c1c(C)c2cnc(Nc3ccc(N4CCN(CC(=O)NCC5CC(Nc6nc(NC(C)C)ccc6C(=O)Nc6cc(C)n(C)n6)C5)CC4)cn3)nc2n(C2CCCC2)c1=O (centres unmarked) [CPD-205]    50 to 80%

List reported inhibition at 0.2 µM for each of these molecules:
1. CNc1ccc(C(=O)Nc2ccc(N(C)C)nn2)c(NC2CC3(C2)CC(OCC(=O)N2CCN(c4ccc(Nc5ncc6c(C)c(C(C)=O)c(=O)n(C7CCCC7)c6n5)nc4)CC2)C3)n1 (centres unmarked) [CPD-84]
2. CNc1ccc(C(=O)Nc2ccc(N(C)C)nn2)c(NC2CC3(C2)CN(C(=O)C2CC24CCN(c2ccc(Nc5ncc6c(C)c(C(C)=O)c(=O)n(C7CCCC7)c6n5)nc2)CC4)C3)n1 (centres unmarked) [CPD-324]

## Output
< 30%
< 30%

State the recorded inhibition at 0.2 µM for every item in the following list.
1. CNc1ccc(C(=O)Nc2cc(C)on2)c(NC2CCN(C(=O)CN3CCN(c4ccc(Nc5ncc6c(C)c(C(C)=O)c(=O)n(C7CCCC7)c6n5)nc4)CC3)CC2)n1 [CPD-229]
2. [2H]C([2H])([2H])Nc1ccc(C(=O)Nc2cc(C)n(C)n2)c(NC2CN(C(=O)C(F)(F)CN3CCN(c4ccc(Nc5ncc6c(C)c(C(C)=O)c(=O)n(C7CCCC7)c6n5)nc4)CC3)C2)n1 [CPD-233]
3. CNc1ccc(C(=O)Nc2cccc(C3CC3)n2)c(NC2CC(CNC(=O)CN3CCN(c4ccc(Nc5ncc6c(C)c(C(C)=O)c(=O)n(C7CCCC7)c6n5)nc4)CC3)C2)n1 (centres unmarked) [CPD-162]
4. CNc1ccc(C(=O)Nc2cc(C)n(C)n2)c(NC2CCN(C(=O)CN3CCN(c4ccc(Nc5ncc6c(C)c(C(C)=O)c(=O)n(C7CCCC7)c6n5)nc4)CC3)CC2)n1 [CPD-228]

## Output
50 to 80%
30 to 50%
50 to 80%
30 to 50%

* * *

Exercise: state measured activity at 0.1 µM for each of the compounds provided.
Target: CDK4 (Homo sapiens, UniProt P11802+Q16531)
Experiment: HiBiT detection of HiBiT-tagged CDK4 protein level in MCF7 cells, 16 hours (Table 8)
Format: cell-based
Design: expressed in transfected cells; host or cells: MCF7
Conditions: 100 nM, MCF7 cells stably expressing HiBiT tagged target proteins, read-out: % CDK4 Relative Level (100 nM)

Some solved cases for reference:
CNc1ccc(C(=O)Nc2ccc(N(C)C)nn2)c(NCCCCCCC(=O)N2CCN(c3ccc(Nc4ncc5cc6n(c5n4)C4(CCCCC4)CNC6=O)nc3)CC2)n1 [CPD-636]    55 to 85%
CNc1ccc(C(=O)Nc2ccc(N(C)C)nn2)c(NCCCCCCCCNC(=O)CN2CCN(c3ccc(Nc4ncc5cc6n(c5n4)C4(CCCCC4)CNC6=O)nc3)CC2)n1 [CPD-646]    > 85%
CNc1ccc(C(=O)Nc2ccc(N(C)C)nn2)c(NCCCCNC(=O)CN2CCN(c3ccc(Nc4ncc(F)c(-c5cc(F)c6nc(C)n(C(C)C)c6c5)n4)nc3)CC2)n1 [CPD-660]    > 85%

Provide the reported activity at 0.1 µM of each entry below, same order.
1. CNc1ccc(C(=O)Nc2ccc(N(C)C)nn2)c(NCCCC(=O)NC2CCC(Nc3ncc4ccc(=O)n(C5CCCC5)c4n3)CC2)n1 (stereo not drawn) [CPD-667]
2. CCc1ccc(C(=O)Nc2ccc(N(C)C)nn2)c(NC2CC3(CC(NC(=O)CN4CCN(Cc5ccc(Nc6ncc7c(C)c(C(C)=O)c(=O)n(C8CCCC8)c7n6)nc5)CC4)C3)C2)c1 (stereo not drawn) [CPD-598]
3. CNc1ccc(C(=O)Nc2ccc(N(C)C)nn2)c(NCCCCC(=O)NC2CCC(Nc3ncc4ccc(=O)n(C5CCCC5)c4n3)CC2)n1 (stereo not drawn) [CPD-668]

## Output
1: > 85%; 2: > 85%; 3: > 85%
